- study_target: active p38 alpha enzyme (Upstate Biotechnology) (Homo sapiens, UniProt Q16539)
- Construct: purchased Upstate Biotechnology
- Sequence (Q16539 whole entry): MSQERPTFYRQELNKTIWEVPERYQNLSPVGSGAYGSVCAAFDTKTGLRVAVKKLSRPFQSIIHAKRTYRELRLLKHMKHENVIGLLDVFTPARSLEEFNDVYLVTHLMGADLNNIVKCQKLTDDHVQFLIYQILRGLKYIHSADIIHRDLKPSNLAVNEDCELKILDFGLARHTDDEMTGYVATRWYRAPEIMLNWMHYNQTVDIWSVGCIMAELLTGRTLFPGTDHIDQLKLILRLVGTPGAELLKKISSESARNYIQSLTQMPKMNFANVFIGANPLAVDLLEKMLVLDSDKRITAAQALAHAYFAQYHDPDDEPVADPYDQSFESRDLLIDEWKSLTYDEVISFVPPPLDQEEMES
- test_method_notes: p38α biochemical assay (ATP turnover, luminescent detection, Cambrex PKlight)
- cond: p38α biochemical assay, Table 1 Biological Activity
measured_attribute: IC50

>>> reported_value("Cc1onc(-c2ccc(F)cc2Cl)c1-c1ccn(C(=O)NC(C)C)n1")
"≤ 1 µM"
>>> reported_value("CC(CC(=O)NCc1nc(-c2ccc(F)cc2)c(-c2nc(C(=O)NC(C)C)cs2)o1)CC(C)(C)C (centres unmarked)")
"> 1 µM"
>>> reported_value("CC(C)NC(=O)c1csc(-c2c(-c3ccc(F)cc3)noc2CNC(=O)c2ccc(-c3ccc(O)cc3)cc2)n1")
"> 1 µM"
>>> reported_value("COc1ccc(C(=O)NCc2onc(-c3ccc(F)cc3)c2-c2nc(C(=O)NC(C)C)cs2)c(OC)c1OC")
"> 1 µM"
>>> reported_value("CC(C)NC(=O)c1csc(-c2oc(CNC(=O)C3CC(O)CN3C(=O)OC(C)(C)C)nc2-c2ccc(F)cc2)n1 (centres unmarked)")
"> 1 µM"
>>> reported_value("CC(C)NC(=O)c1csc(-c2c(-c3ccc(F)cc3)noc2CNC(=O)c2ccccc2-c2ccccc2)n1")
"> 1 µM"
>>> reported_value("C#CCNC(=O)c1csc(-c2c(-c3ccc(F)cc3)n[nH]c2C2CCN(C(=O)CO)CC2)n1")
"≤ 1 µM"
>>> reported_value("CC(C)NC(=O)c1csc(-c2oc(CNC(=O)c3ccc(F)c(F)c3)nc2-c2ccc(F)cc2)n1")
"> 1 µM"
>>> reported_value("CCCCOc1ccc(C(=O)NCc2nc(-c3ccc(F)cc3)c(-c3nc(C(=O)NC(C)C)cs3)o2)cc1")
"> 1 µM"
>>> reported_value("Cc1cccc([N+](=O)[O-])c1C(=O)NCc1onc(-c2ccc(F)cc2)c1-c1nc(C(=O)NC(C)C)cs1")
"> 1 µM"
>>> reported_value("CC(C)NC(=O)c1csc(-c2c(-c3ccc(F)cc3)n[nH]c2C2CCNCC2)n1")
"≤ 1 µM"
>>> reported_value("Cc1cc(C(=O)NCc2onc(-c3ccc(F)cc3)c2-c2nc(C(=O)NC(C)C)cs2)cc(Cl)n1")
"> 1 µM"
>>> reported_value("Cc1ccccc1OCC(=O)NCc1onc(-c2ccc(F)cc2)c1-c1nc(C(=O)NC(C)C)cs1")
"> 1 µM"
>>> reported_value("CC(C)NC(=O)c1csc(-c2oc(CN3CCN(C(=O)c4c(F)cccc4F)CC3)nc2-c2ccc(F)cc2)n1")
"> 1 µM"
>>> reported_value("CC(C)NC(=O)c1csc(-c2oc(CN3CCN(C(=O)c4ccccc4C(F)(F)F)CC3)nc2-c2ccc(F)cc2)n1")
"> 1 µM"
>>> reported_value("CC(C)NC(=O)c1csc(-c2oc(CN3CCN(C(=O)c4cc5ccccc5s4)CC3)nc2-c2ccc(F)cc2)n1")
"> 1 µM"
>>> reported_value("CC(C)NC(=O)c1csc(-c2oc(CN3CCN(C(=O)c4c(Cl)cc(Cl)cc4Cl)CC3)nc2-c2ccc(F)cc2)n1")
"> 1 µM"
>>> reported_value("CC(C)NC(=O)c1csc(-c2c(-c3ccc(F)cc3)noc2CNC(=O)/C=C/c2ccccc2F)n1")
"≤ 1 µM"
>>> reported_value("CC(C)NC(=O)c1csc(-c2oc(CN3CCN(C(=O)/C=C/c4ccc5c(c4)OCO5)CC3)nc2-c2ccc(F)cc2)n1")
"> 1 µM"
>>> reported_value("Cc1ccc(C(=O)CCC(=O)NCc2onc(-c3ccc(F)cc3)c2-c2nc(C(=O)NC(C)C)cs2)cc1")
"> 1 µM"
>>> reported_value("COc1ccc(O)c(C(=O)N2CCN(Cc3nc(-c4ccc(F)cc4)c(-c4nc(C(=O)NC(C)C)cs4)o3)CC2)c1")
"≤ 1 µM"
>>> reported_value("CC(=O)NC(Cc1ccc(O)cc1)C(=O)NCc1onc(-c2ccc(F)cc2)c1-c1nc(C(=O)NC(C)C)cs1 (centres unmarked)")
"> 1 µM"
>>> reported_value("CC(C)NC(=O)c1csc(-c2oc(CNC(=O)CNC(=O)OC(C)(C)C)nc2-c2ccc(F)cc2)n1")
"> 1 µM"
>>> reported_value("CCCOc1ccc(C(=O)NCc2nc(-c3ccc(F)cc3)c(-c3nc(C(=O)NC(C)C)cs3)o2)cc1")
"> 1 µM"
>>> reported_value("COc1ccc(C(=O)N2CCN(Cc3nc(-c4ccc(F)cc4)c(-c4nc(C(=O)NC(C)C)cs4)o3)CC2)c(OC)c1")
"≤ 1 µM"
>>> reported_value("CCC(C)NC(=O)n1ccc(-c2c(-c3ccc(Cl)cc3)noc2C)n1 (centres unmarked)")
"≤ 1 µM"
>>> reported_value("CC(C)NC(=O)c1csc(-c2c(-c3ccc(F)cc3)noc2CNC(=O)C(C)NC(=O)OC(C)(C)C)n1 (centres unmarked) [Example 723]")
"> 1 µM"
>>> reported_value("CC(C)NC(=O)c1csc(-c2oc(CN3CCN(C(=O)C4CCc5ccccc54)CC3)nc2-c2ccc(F)cc2)n1 (centres unmarked)")
"≤ 1 µM"
>>> reported_value("Cc1ccc(C)c(C(=O)NCc2onc(-c3ccc(F)cc3)c2-c2nc(C(=O)NC(C)C)cs2)c1")
"> 1 µM"
